SYSTEM_NAME: Taq DNA polymerase (UniProt P19821 P19821:1-832)
Sequence (P19821 whole entry, one chain of several): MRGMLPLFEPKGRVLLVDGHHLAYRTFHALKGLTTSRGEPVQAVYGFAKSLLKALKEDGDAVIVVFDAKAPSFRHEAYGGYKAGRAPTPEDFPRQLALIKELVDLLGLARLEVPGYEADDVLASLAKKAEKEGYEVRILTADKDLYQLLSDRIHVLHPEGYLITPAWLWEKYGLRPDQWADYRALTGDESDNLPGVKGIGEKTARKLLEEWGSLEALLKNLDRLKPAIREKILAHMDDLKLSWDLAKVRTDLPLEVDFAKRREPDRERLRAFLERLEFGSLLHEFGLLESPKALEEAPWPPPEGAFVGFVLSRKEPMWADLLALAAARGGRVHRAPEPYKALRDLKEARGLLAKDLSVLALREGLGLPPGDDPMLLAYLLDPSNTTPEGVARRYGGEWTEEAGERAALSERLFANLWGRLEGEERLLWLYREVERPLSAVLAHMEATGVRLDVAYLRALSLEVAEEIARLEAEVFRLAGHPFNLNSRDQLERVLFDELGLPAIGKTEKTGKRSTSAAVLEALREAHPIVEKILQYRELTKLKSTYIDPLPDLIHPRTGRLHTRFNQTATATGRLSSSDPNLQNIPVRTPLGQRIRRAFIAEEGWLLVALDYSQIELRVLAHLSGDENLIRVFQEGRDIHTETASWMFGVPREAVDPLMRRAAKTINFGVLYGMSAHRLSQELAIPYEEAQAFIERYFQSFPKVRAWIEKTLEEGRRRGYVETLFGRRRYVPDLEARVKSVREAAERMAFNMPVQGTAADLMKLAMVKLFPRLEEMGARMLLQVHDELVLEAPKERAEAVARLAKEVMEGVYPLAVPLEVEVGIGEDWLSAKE
MEASUREMENT_NOTES: filter
SETUP_CONDITIONS: tags: rTaq, 94 kDa, Roche Molecular Systems / Perkin Elmer; stem-loop dimer
ENDPOINT_NAME: pKd
Just so you know, pKd here is -log10 of the concentration in molar units; reply with that number alone.

Input line: pKd lookup needed for D.30-D.30 homodimer (ssDNA, two Trnc.2-30 copies joined with symmetrical 3'-3' branching CPG linker (linker region drawn in figure only)) DNA 1: GCCGGCCAATGTACAGTATTGGCCGGC DNA 2: GCCGGCCAATGTACAGTATTGGCCGGC , thanks.
Output line: 10.32
